Measured pKd by item
measured.on: T1, Cynomolgus monkey Serum Albumin (Cynomolgus monkey, UniProt A2V9Z4 25-608)
T1 construct: mature; purified protein on CM5 chips for BIAcore; also called CSA; cyno SA
method.notes: BIAcore SPR;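 further: purified dAbs run at 1 µM, 500 nM and 50 nM over human, cynomolgus, mouse and rat serum albumin in BIAcore binding measurements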
pKd: −log10 of the molar value.
recorded.endpoint: pKd

[
  {
    "binder": "DOM7h-11 (other) VL: DIQMTQSPSSLSASVGDRVTITCRASRPIGTTLSWYQQKPGKAPKLLIWFGSRLQSGVPSRFSGSGSGTDFTLTISSLQPEDFATYYCAQAGTHPTTFGQGTKVEIKR",
    "recorded.endpoint": "pKd",
    "value": 6.00
  },
  {
    "binder": "DOM7h-11-3 (other) VL: DIQMTQSPSSLSASVGDRVTITCRASRPIGTTLSWYQQKPGKAPKLLILWNSRLQSGVPSRFSGSGSGTDFTLTISSLQPEDFATYYCAQAGTHPTTFGQGTKVEIKR",
    "recorded.endpoint": "pKd",
    "value": 6.17
  },
  {
    "binder": "DOM7h-14-10 (other, Vk dAb (AlbudAb)) VL: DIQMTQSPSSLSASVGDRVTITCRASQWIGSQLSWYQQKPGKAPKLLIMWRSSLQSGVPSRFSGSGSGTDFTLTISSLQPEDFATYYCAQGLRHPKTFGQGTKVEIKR",
    "recorded.endpoint": "pKd",
    "value": 8.05
  },
  {
    "binder": "DOM7h-14-18 (other, Vk dAb (AlbudAb)) VL: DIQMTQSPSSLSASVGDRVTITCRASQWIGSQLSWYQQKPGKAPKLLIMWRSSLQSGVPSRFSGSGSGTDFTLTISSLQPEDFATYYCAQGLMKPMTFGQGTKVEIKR",
    "recorded.endpoint": "pKd",
    "value": 6.74
  }
]
